Listed below: logP values for each entry.
Where a SMILES comes first, the peptide text is derived from it.

{"Compound": "CC(C)OC(=O)C(=Cc1ccccc1)S(=O)(=O)c1ccc(Cl)cc1", "logP": 4.18}
{"Compound": "CCC(C)C(N)C(=O)NC(CO)C(=O)NC(C(=O)O)C(C)CC (stereo not drawn) (H-Ile-Ser-Ile-OH; configuration not given here)", "logP": -2.64}
{"Compound": "COc1ccccc1NC(=O)OCCN1CCCCC1", "logP": 3.11}
{"Compound": "Oc1cc(O)c2c(c1)OC(c1ccc(O)c(O)c1)C(OCCCc1ccccc1)C2 (stereo not drawn)", "logP": 3.78}
{"Compound": "CCNc1nc(O)nc(NCC)n1", "logP": 2.29}
{"Compound": "Nc1ccc(CNC(=O)C2CCCN2C(=O)C(N)C(C2CCCCC2)C2CCCCC2)cn1 (stereo not drawn)", "logP": 4.61}
{"Compound": "COc1cnc(C2=NC(C)(C(C)C)C(=O)N2)c(C(=O)O)c1 (stereo not drawn)", "logP": 0.61}
{"Compound": "CC(C)(C)[N+]([O-])=Cc1ccc(O)cc1", "logP": 0.6}
{"Compound": "O=C(CCCN=C=S)c1cccnc1", "logP": 1.79}
{"Compound": "CNc1nc(NC)nc(NC(C)C)n1", "logP": 1.87}
{"Compound": "CCC(C)Nc1nc(N)nc(Cl)n1 (stereo not drawn)", "logP": 1.86}
{"Compound": "CC(C)(C)[N+]([O-])=Cc1ccc(Cl)cc1", "logP": 2.4}
{"Compound": "CCCOc1ccc(CNc2[nH]cnc3ncnc2-3)cc1", "logP": 3.15}
{"Compound": "Nc1nc(O)nc(Nc2ccccc2)n1", "logP": 1.9}
{"Compound": "CC(C)C(N)C(=O)NCC(=O)NC(Cc1ccccc1)C(=O)NC(Cc1ccccc1)C(=O)O (stereo not drawn) (H-VGFF-OH; configuration not given here)", "logP": -0.51}
{"Compound": "COc1ccccc1OCCN(C)C", "logP": 1.42}
{"Compound": "O=c1ccc(/C=C/c2ccc(-n3ccnc3)cc2)n[nH]1", "logP": 1.21}
{"Compound": "CNC(=S)OCCn1c([N+](=O)[O-])cnc1C", "logP": 1.12}
{"Compound": "CC1OC(OC2C(C)OC(OC3C(C)OC(OC4CCC5(C)C(CCC6C5CCC5(C)C(C7=CC(=O)OC7)C(OC=O)CC65O)C4)CC3OC=O)CC2OC=O)CC(OC=O)C1OC=O (stereo not drawn)", "logP": 3.16}
{"Compound": "O=C(NC(Cc1c[nH]c2ccccc12)C(=O)O)OCC1c2ccccc2-c2ccccc21 (stereo not drawn)", "logP": 4.93}
{"Compound": "COC(=O)N1CCN(C(=O)Cc2ccc(Cl)c(Cl)c2)C(CN2CCCC2)C1 (stereo not drawn)", "logP": 4.1}
{"Compound": "CCCN(CCC)C1CCc2c(O)cccc2C1 (stereo not drawn)", "logP": 3.58}
{"Compound": "Cc1coc2c(C)c3oc(=O)cc(C)c3cc12", "logP": 3.25}

* * *

Measured logP values are reported for all entries that follow.

{"Substance Smiles": "CCN(CC)CCSC(=NO)c1nc(-c2ccccc2)no1", "logP": 3.05}
{"Substance Smiles": "COc1cc2ncnc(Nc3cccc(F)c3)c2cc1OC", "logP": 2.96}
{"Substance Smiles": "Cc1cc2c(ccc3c(C)cc(=O)oc32)o1", "logP": 3.08}

* * *

Catalogue of compounds with associated logP
Where a SMILES comes first, the peptide text is derived from it.

{"Compound": "Cc1nc2ccccc2c(=O)n1CC(=O)NNc1ccccc1", "logP": 1.34}
{"Compound": "Cc1coc2cc3oc(=O)ccc3cc12", "logP": 2.47}
{"Compound": "CCOc1ccccc1NC(=O)OCCN1CCCCC1", "logP": 3.59}
{"Compound": "Cc1nccc2c1[nH]c1cc(O)ccc12", "logP": 2.84}
{"Compound": "O=C(O)CCCCON=C(c1cccc(C(F)(F)F)c1)c1ccncn1", "logP": 3.14}
{"Compound": "C=CCc1c(OC)cc(Cc2cnc(N)nc2N)cc1OCC", "logP": 2.66}
{"Compound": "CCC(C)C(NC(=O)C(NC(=O)C(N)CC(C)C)C(C)CC)C(=O)O (stereo not drawn) (H-Leu-Ile-Ile-OH; configuration not given here)", "logP": -1.11}
{"Compound": "Cc1cccc(C)c1CCc1cnc[nH]1", "logP": 2.91}
{"Compound": "CCOC(=O)C1=C(C)NC(C)=C(C(=O)OC)C1C (stereo not given)", "logP": 3.27}
{"Compound": "CCCCCOCCCNc1[nH]cnc2ncnc1-2", "logP": 2.74}
{"Compound": "COc1ccc(C2Cc3c(C(=O)OCc4ccccc4)cccc3N(CCN(C)C)C(=O)C2OC(C)=O)cc1 (stereo not given)", "logP": 5.3}
{"Compound": "NC1=NCC(CN2CCN(c3ccccc3F)CC2)O1 (stereo not given)", "logP": 1.06}
{"Compound": "CCOc1ccc(CNc2[nH]cnc3ncnc2-3)cc1", "logP": 2.6}
{"Compound": "Nc1ccn([C@H]2CS[C@@H](CO)O2)c(=O)n1", "logP": -0.93}
{"Compound": "CCNc1[nH]cnc2ncnc1-2", "logP": 0.92}
{"Compound": "CC(=O)Nc1ccc(F)cc1F", "logP": 1.5}
{"Compound": "CC(=O)c1c(C)nc2c3c(c(C(=O)N(C)C)cn12)CCC(c1ccccc1)O3 (stereo not given)", "logP": 2.75}
{"Compound": "COC(=O)C(C)NP(=O)(OCC1C=CC(n2cc(C)c(=O)[nH]c2=O)O1)Oc1ccccc1 (stereo not given)", "logP": 1.04}
{"Compound": "CCCCNCC(C)O (stereo not given)", "logP": 1.22}
{"Compound": "Cc1cn(C2C=CC(COP3(=O)OCc4cc([N+](=O)[O-])ccc4O3)O2)c(=O)[nH]c1=O (stereo not given)", "logP": 0.18}
{"Compound": "CC(C)NC(=S)NS(=O)(=O)c1cnccc1NC1CCCCCCC1", "logP": 4.2}
{"Compound": "Clc1ccccc1CNc1ncnc2nc[nH]c12", "logP": 2.76}
{"Compound": "C[N+](C)([O-])CCCN1c2ccccc2Sc2ccccc21", "logP": 1.9}
{"Compound": "CC(C)(C)[N+]([O-])=Cc1cc[n+]([O-])cc1", "logP": -1.05}
{"Compound": "CC(C)(C)Nc1nc(N)nc(Cl)n1", "logP": 1.94}

* * *

Where a SMILES comes first, the peptide text is derived from it.
# logP annotations
Observable: logP

{"Compound": "COc1cc2c(c(OC)c1OC)-c1ccc(SC)c(=S)cc1C(NC(C)=O)CC2 (centres undefined)", "Observable": "logP", "Measured Result": 1.75}
{"Compound": "CCCN(CCC)C1CCc2ccc(O)cc2C1 (centres undefined)", "Observable": "logP", "Measured Result": 3.75}
{"Compound": "Cc1cccc(N2CC(N3CCOCC3)=CC2=O)c1", "Observable": "logP", "Measured Result": 1.5}
{"Compound": "CCC(C)C(N)C(=O)NC(Cc1ccc(O)cc1)C(=O)NC(C(=O)O)C(C)C (stereo not drawn) (H-Ile-Tyr-Val-OH; configuration not given here)", "Observable": "logP", "Measured Result": -1.77}
{"Compound": "O=[N+]([O-])c1cc(F)ccc1O", "Observable": "logP", "Measured Result": 1.88}
{"Compound": "CC(=O)OCOC(=O)N(C)N=Nc1ccc(C#N)cc1", "Observable": "logP", "Measured Result": 2.08}
{"Compound": "CCCc1nc(N(C)C)nc(N2CCOCC2)n1", "Observable": "logP", "Measured Result": 1.64}
{"Compound": "O=C1C=C(N2CCOCC2)CN1c1ccc(F)c(Cl)c1", "Observable": "logP", "Measured Result": 2.2}
{"Compound": "CC(C)CC(N)C(=O)NC(CC(C)C)C(=O)NC(CC(C)C)C(=O)NC(C(=O)O)C(C)C (centres undefined) (H-LLLV-OH; configuration not given here)", "Observable": "logP", "Measured Result": -0.51}
{"Compound": "NS(=O)(=O)c1ncncc1-c1ccccc1", "Observable": "logP", "Measured Result": 0.5}
{"Compound": "CSCCC(NC(=O)C(Cc1ccccc1)NC(=O)CNC(=O)C(C)NC(=O)C(N)Cc1ccc(O)cc1)C(=O)O (centres undefined)", "Observable": "logP", "Measured Result": -0.59}
{"Compound": "Cc1c2ccoc2cc2oc(=O)ccc12", "Observable": "logP", "Measured Result": 2.33}
{"Compound": "NC(Cc1ccccc1)C(=O)N1CCCC1C(=O)O (stereo not drawn) (H-Phe-Pro-OH; configuration not given here)", "Observable": "logP", "Measured Result": -1.23}
{"Compound": "CSCCC(N)C(=O)NC(CC(C)C)C(=O)NC(Cc1ccccc1)C(=O)O (centres undefined)", "Observable": "logP", "Measured Result": -1.03}

Origin of values: the OPERA property sets (Mansouri et al. 2018)
